Ref: patent US20240316047A1

- Tested on: circBRIP1 in HCT116 cells
- Measurement Notes: DHX9 circBRIP1 cellular target engagement SYBR Green assay
- Format: cell-based
- Test Parameters: Homo sapiens, HCT-116, values marked +; read-out: DHX9 Cellular Target Engagement EC50
Reported Endpoint: EC50 (nM)
One number for each entry, in nM.

Compound: CS(=O)(=O)Nc1cc(Cl)cc(NC(=O)c2cnn(-c3ncccc3OCc3cccc(Br)c3)c2)c1 [Example 231]
Study Target: circBRIP1 in HCT116 cells
EC50 [nM]: 203

Please find the next compound below.
Req: Reported EC50, compound CCc1sc(C(=O)Nc2cc(Cl)cc(NS(C)(=O)=O)c2)cc1-c1ccccn1 [Example 232] : ____
Resp: 61

* * *

Record form. Attribute: DHX9 Biochemical Max Inhibition. Fill in for each entry.
- Study Target: Human recombinant DHX9 protein (Homo sapiens (Human))
- Measurement Notes: DHX9 ATPase assay (ADP-Glo)
- Format: biochemical
Give bare numbers.

Compound: COC1CN(c2cnc(-n3cc(C(=O)Nc4cc(Cl)cc(NS(C)(=O)=O)c4)cc3C)nc2)C1
Recorded Value: 92
--
Compound: CCS(=O)(=O)Nc1cc(Cl)cc(NC(=O)c2cc(C)n(-c3ncc(F)cc3F)c2)c1
Recorded Value: 70.5
--
Compound: CC(C)n1cc(C(=O)Nc2cc(Cl)cc(NS(C)(=O)=O)c2)cc1-c1ncc(F)cn1
Recorded Value: 67.1
--
Compound: Cn1cc(C(=O)Nc2cc(Cl)cc(NS(C)(=O)=O)c2)cc1-c1ncccc1OCC1CC1
Recorded Value: 63.5
--
Compound: Cn1cc(C(=O)Nc2cc(Cl)cc(NS(C)(=O)=O)c2)cc1-c1ncc(N2CCC3(C2)CC3(F)F)cn1 (stereo not shown)
Recorded Value: 55.9

Would you mind listing DHX9 Biochemical Max Inhibition for each of the following compounds?
1. Cc1sc(C(=O)Nc2cc(Cl)cc(NS(C)(=O)=O)c2)cc1-c1ncc(C2(F)COC2)cn1
2. COc1cnn(-c2csc(C(=O)Nc3cc(Cl)cc(NS(C)(=O)=O)c3)c2)c1

Resp:
1. 95
2. 79.1

Hey, quick one: what's DHX9 Biochemical Max Inhibition for each of these?
1. CCc1cncc(COc2cccnc2-c2cc(C(=O)Nc3cc(Cl)cc(NS(C)(=O)=O)c3)cn2C)c1
2. COc1cnc(-c2cc(C(=O)Nc3cc(Cl)cc(NS(C)(=O)=O)c3)cn2C)c(F)c1

Resp:
1: 72.6; 2: 82.9

* * *

Please respond with reported IC50 for every item in the list.
- Study Target: Human recombinant DHX9 protein (Homo sapiens (Human), UniProt Q08211)
- Sequence (Q08211 whole entry): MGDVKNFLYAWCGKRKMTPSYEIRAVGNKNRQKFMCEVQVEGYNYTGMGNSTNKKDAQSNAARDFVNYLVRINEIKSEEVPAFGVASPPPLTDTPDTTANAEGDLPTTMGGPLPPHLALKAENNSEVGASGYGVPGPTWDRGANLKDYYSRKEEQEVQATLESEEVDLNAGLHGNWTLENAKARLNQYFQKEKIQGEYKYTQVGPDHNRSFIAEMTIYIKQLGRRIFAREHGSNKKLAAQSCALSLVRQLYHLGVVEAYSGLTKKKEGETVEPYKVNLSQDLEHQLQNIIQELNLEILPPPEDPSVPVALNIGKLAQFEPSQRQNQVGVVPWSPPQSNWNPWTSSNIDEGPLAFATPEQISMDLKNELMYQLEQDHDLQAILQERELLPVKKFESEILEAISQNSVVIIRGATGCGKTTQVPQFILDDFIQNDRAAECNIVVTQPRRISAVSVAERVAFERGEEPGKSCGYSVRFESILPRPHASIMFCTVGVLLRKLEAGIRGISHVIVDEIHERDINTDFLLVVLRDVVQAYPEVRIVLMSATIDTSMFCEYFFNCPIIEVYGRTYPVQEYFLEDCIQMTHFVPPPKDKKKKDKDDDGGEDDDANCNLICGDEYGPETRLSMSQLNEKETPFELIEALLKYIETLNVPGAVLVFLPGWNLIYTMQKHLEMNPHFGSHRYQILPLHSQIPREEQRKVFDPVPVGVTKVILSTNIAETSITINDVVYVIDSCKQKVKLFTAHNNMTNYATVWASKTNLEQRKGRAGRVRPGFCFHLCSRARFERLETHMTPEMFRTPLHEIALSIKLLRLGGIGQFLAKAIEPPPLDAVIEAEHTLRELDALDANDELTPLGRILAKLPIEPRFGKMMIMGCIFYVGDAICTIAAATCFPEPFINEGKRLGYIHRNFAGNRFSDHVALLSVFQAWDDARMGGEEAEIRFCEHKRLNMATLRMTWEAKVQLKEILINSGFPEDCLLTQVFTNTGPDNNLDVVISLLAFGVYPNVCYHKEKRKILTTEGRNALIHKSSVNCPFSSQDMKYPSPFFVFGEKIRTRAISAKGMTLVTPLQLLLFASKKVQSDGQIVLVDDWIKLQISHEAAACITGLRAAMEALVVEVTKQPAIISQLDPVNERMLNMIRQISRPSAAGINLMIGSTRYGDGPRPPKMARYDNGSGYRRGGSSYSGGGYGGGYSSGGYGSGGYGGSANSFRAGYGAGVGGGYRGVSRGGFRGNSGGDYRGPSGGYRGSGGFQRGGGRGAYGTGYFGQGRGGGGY
- Measurement Notes: DHX9 ATPase assay (ADP-Glo)
- Test Parameters: read-out: DHX9 Biochemical Inflection Point
Give bare numbers, in nM.

Recorded results for 2 compounds are shown here.
Compound: CS(=O)(=O)Nc1cc(Cl)cc(NC(=O)c2cc3ccc(Cl)cn3c2)c1 [Example 299]
Unit Symbol: nM
Recorded Value: 335
//
Compound: CCS(=O)(=O)Nc1cc(Cl)cc(NC(=O)c2cc(-c3ncc(F)cc3F)n(C)c2)c1 [Example 543]
Unit Symbol: nM
Recorded Value: 48.6

Provide reported IC50 for each item, in the same order as listed.
1. CCCS(=O)(=O)Nc1cc(Cl)cc(NC(=O)c2cc(-c3ccc(N4CC(F)(F)C4)cn3)n(C)c2)c1 [Example 531]
2. CS(=O)(=O)Nc1cc(Cl)cc(NC(=O)c2cc(C(F)(F)F)n(-c3ccc(N4CCOCC4)cn3)c2)c1 [Example 271]
3. CS(=O)(=O)Nc1cc(Cl)cc(NC(=O)c2cnn(-c3ncc(F)cc3OCc3cccc(F)c3)c2)c1 [Example 202]
4. Cc1sc(C(=O)Nc2cc(Cl)cc(NS(C)(=O)=O)c2)cc1-c1ncc(O)cn1 [Example 583]

Resp:
1. 2600
2. 86.5
3. 12.7
4. 4.9

Your task in this section: give IC50 for each listed record.
1. CS(=O)(=O)Nc1cc(Br)cc(NC(=O)c2ccc3c(c2)[nH]c(=O)n3Cc2ccccc2)c1 [Example 99]
2. Cc1sc(C(=O)Nc2cc(Cl)cc(NS(C)(=O)=O)c2)cc1-c1ncccc1OCc1cncc(F)c1 [Example 621]
3. CS(=O)(=O)Nc1cc(Cl)cc(NC(=O)c2cnn(-c3ncc(N4CCOCC4)cc3OCc3cccnc3)c2)c1 [Example 194]
4. Cc1sc(C(=O)Nc2cc(Cl)cc(NS(C)(=O)=O)c2)cc1-c1ncc(N2CC(F)(F)C2)cc1OCC(F)(F)F [Example 707]
5. Cn1cc(C(=O)Nc2cc(Cl)cc(NS(C)(=O)=O)c2)cc1-c1ccc(N2CC(F)(F)C2)cn1 [Example 595]
6. COc1ccc(-n2cc(C(=O)Nc3cc(Cl)cc(NS(C)(=O)=O)c3)cn2)nc1 [Example 197]
7. Cc1cc(C(=O)Nc2cc(Cl)cc(NS(C)(=O)=O)c2)cn1-c1ccc(OC2COC2)cn1 [Example 668]

Resp:
1. 298
2. 6.8
3. 6.8
4. 28.3
5. 17.5
6. 26
7. 7.3

Quick one: give me IC50 for each item below, same order please.
1. CS(=O)(=O)Nc1cc(Cl)cc(NC(=O)c2cc(-c3ccccn3)c(C3CC3)s2)c1 [Example 177]
2. CCn1cc(C(=O)Nc2cc(Cl)cc(NS(C)(=O)=O)c2)cc1-c1ccccc1 [Example 79]
3. CCS(=O)(=O)Nc1cc(Cl)cc(NC(=O)c2cc(-c3ncccn3)n(C)c2)c1 [Example 173]

Resp:
[21.6, 146, 8.6]
